System: DeltatarO mutant
Protocol Description: S. aureus survival, RN4220 and DeltatarO strains – OD600, teichoic acid synthesis inhibitors, primary screen (AID 463173)
Experimental Context: S. aureus RN4220 wild type/DeltatarO growth, OD600, 18 h, hits give low values, screened at 18.75 µg/mL (by protocol)
The whole screen tested about 52,000 compounds, of which about 4,300 (8.3%) were called active. This excerpt belongs to a sample that is enriched for actives.
// NB: equality with 70% counts as NO; only survival strictly below is YES

**Query** Take the molecule "Cc1ccccc1NC(=O)Cn1c(=O)n(Cc2ccc3c(c2)OCO3)c(=O)c2ccccc21" and say whether its survival is less than 70%.
**Result** NO

**Query** Please determine if "O=[N+]([O-])c1cc(-c2nc(-c3ccccc3)no2)ccc1NCCc1ccccc1" is below 70% in terms of survival.
**Result** YES

**Query** Could you please tell me whether survival recorded for "Cc1cc(C)cc(OCC(=O)NCC2(N3CCOCC3)CCCCC2)c1" is less than 70%?
**Result** NO

**Query** Take the molecule "COc1ccccc1CCNC(=O)Cc1c(C)c2ccc(O)cc2oc1=O" and say whether its survival is less than 70%.
**Result** YES

**Query** # strict comparison: is reported survival < 70%? input = "CC(C)OC(=O)CSc1nnc(-c2ccccc2)n1Cc1ccco1"
**Result** NO

**Query** Threshold test, survival < 70%: O=C(NCC1CCCO1)Nc1c[nH]c2c(Cl)cccc2c1=O (stereo not drawn)
**Result** NO

**Query** Does "COc1ccccc1OCC(=O)Nc1ccc(S(=O)(=O)N2CCN(C)CC2)cc1" have survival strictly under 70%?
**Result** NO

**Query** Quick check: does "COc1ccccc1-c1noc(-c2ccc(NCc3cccnc3)c([N+](=O)[O-])c2)n1" have survival under 70%?
**Result** YES

**Query** Determine if "CC(C)Sc1nc2sc3c(c2c(=O)n1-c1ccccc1)CCCC3" shows survival strictly lower than 70%.
**Result** YES

**Query** Hello, I'm reviewing records and need to know if survival of "Cc1c(CC(=O)NCc2ccccc2Cl)c(=O)oc2cc(O)ccc12" is below 70%. Could you check?
**Result** YES

**Query** Does this molecule meet the criterion survival < 70%? COc1ccc(OC)c(C2c3c(oc4ccc(C)cc4c3=O)C(=O)N2CCCN(C)C)c1 (stereo not drawn)
**Result** NO

**Query** Answer whether the molecule "CCOc1ccccc1C(=O)Nc1cc(-c2nc3cccnc3s2)ccc1C" has survival strictly less than 70%
**Result** YES

**Query** is_below(survival, 70%) for "CCOc1cc2sc(N3CCC(C(=O)Nc4ccc(CC)cc4)CC3)nc2cc1Br" ?
**Result** NO

**Query** Could you please tell me whether survival recorded for "Cc1ccc(-n2ncc(C(=O)Nc3ccc4c(c3)OCO4)c2C2CCN(C(=O)OC(C)(C)C)CC2)cc1" is less than 70%?
**Result** NO

**Query** Hello, is survival of the following molecule strictly smaller than 70%? "Cc1ccc(Oc2nc3c(c(=O)n(Cc4ccccc4Cl)c(=O)n3C)n2C)cc1C"
**Result** YES

**Query** Please state whether survival is below 70% for "CCCOc1cccc(C(=O)NCc2cccnc2)c1"
**Result** NO

**Query** Hello, I'm reviewing records and need to know if survival of "CCOc1ccccc1NS(=O)(=O)c1c(C(=O)OC)sc2cccc(F)c12" is below 70%. Could you check?
**Result** YES

**Query** survival under 70%? Item: Cc1ccc(-c2noc(-c3ccc(NCC4CCCO4)c([N+](=O)[O-])c3)n2)cc1 (stereo not drawn)
**Result** NO

**Query** is_below(survival, 70%) for COc1ccc(-c2noc(-c3ccc(NCC4CCCO4)c([N+](=O)[O-])c3)n2)cc1 (stereo not drawn) ?
**Result** YES

**Query** Determine whether this molecule shows survival lower than 70% (ties excluded): "O=C(Nc1nnc(S(=O)(=O)N2CCCCCC2)s1)c1ccccc1F"
**Result** YES

**Query** Please indicate whether the reported survival of "CCOC(=O)c1[nH]c(C)c(CCC(=O)NCc2ccc(OC(C)C)cc2)c1C" is strictly below 70%.
**Result** NO

**Query** Lab note: confirm whether the reported survival for this molecule is below 70%, equality not counting. molecule: "CCn1c2ccccc2c2cc(NC(=O)COc3cccc(C)c3)ccc21"
**Result** YES

**Query** Item "COC(=O)c1sc2cccc(F)c2c1S(=O)(=O)Nc1ccc(C)cc1Cl" : survival beneath 70%, strictly?
**Result** NO

**Query** is_below(survival, 70%) for "N#Cc1cc2c(cc1C#N)Oc1ccccc1O2" ?
**Result** NO

**Query** Please indicate whether the reported survival of "Cc1cccc(CN2C(=O)c3ccccc3Sc3ccc(C(=O)N4CCCC4)cc32)c1" is strictly below 70%.
**Result** NO

**Query** Here's an entry: "COc1ccc(OC)c(CNC(=O)c2cc3ccc4cccnc4c3[nH]2)c1" . Is its survival below 70%?
**Result** NO

**Query** Quick check: does "CCOC(=O)c1sc2cccc(F)c2c1S(=O)(=O)Nc1ccccc1F" have survival under 70%?
**Result** NO

**Query** Please check: survival for CCS(=O)(=O)NCC(c1ccco1)N1CCN(c2ccc(OC)cc2)CC1 (stereo not drawn) , strictly under 70% or not?
**Result** NO

**Query** Given "COC(=O)c1sc2cccc(F)c2c1S(=O)(=O)Nc1cc(C)c(Cl)cc1OC" , is recorded survival strictly lower than 70%?
**Result** NO

**Query** Here's an entry: "C#CCSc1nc2sc3c(c2c(=O)n1Cc1ccccc1)CCCC3" . Is its survival below 70%?
**Result** YES

**Query** Threshold test, survival < 70%: "CN(C)c1ccc(C(=O)Nc2cccc(-c3nc4cccnc4s3)c2)cc1"
**Result** YES

**Query** Does "CCOc1ccc(C(=O)Nc2cccc(-c3nc4cccnc4s3)c2C)cc1OCC" have survival strictly under 70%?
**Result** NO

**Query** Here's an entry: "Cc1cc(C)c(NC(=O)CN(C)S(=O)(=O)c2ccc3c(c2)c(=O)n(C)c(=O)n3C)c(C)c1" . Is its survival below 70%?
**Result** NO

**Query** Is it true that survival reported for "C=C(C)Cn1c(SCC(=O)Nc2ccccc2C)nc2sc3c(c2c1=O)CCCC3" is less than 70%?
**Result** NO

**Query** Does CCC(C)NC(=O)c1sc2nc(C)c(C(=O)Nc3ccc(C)cc3C)c(-c3ccc(NC(C)=O)cc3)c2c1N (stereo not drawn) have survival strictly under 70%?
**Result** NO

**Query** Threshold test, survival < 70%: "Cc1cc(O)c2c(C)c(CC(=O)NCc3ccccc3Cl)c(=O)oc2c1"
**Result** YES

**Query** Strictly below 70% in survival? "O=c1c2c3c(sc2nc(NCCO)n1-c1ccccc1)CCCC3"
**Result** NO

**Query** Confirm or reject: survival of CC(C)=CCC(C)(C)C1OCCN1C(=O)Nc1ccccc1 (stereo not drawn) lies strictly below 70%
**Result** NO

Entry source: PubChem BioAssay AID463173
